Reported Kd values follow for various binders
Target: T1, IL-2Rβ (UniProt P14784 27-240, limits assumed, biotinylated (site not stated))
T1 construct: also called CD122; IL-2Rbeta
T1 sequence (looked up): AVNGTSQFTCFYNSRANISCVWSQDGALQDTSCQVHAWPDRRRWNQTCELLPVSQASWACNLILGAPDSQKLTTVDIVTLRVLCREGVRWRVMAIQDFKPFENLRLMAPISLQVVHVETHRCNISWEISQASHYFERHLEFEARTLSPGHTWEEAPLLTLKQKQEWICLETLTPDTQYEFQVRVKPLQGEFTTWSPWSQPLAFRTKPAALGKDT
Assay: SPR Biacore T100, kinetic fit; biotinylated IL-2Rβ on chip
Readout Label: Kd (nM)

in silico designed IL-2 variant SEQ ID NO: 15, MSA fusion protein (ligand, not shown: large carriers; small tags and cut ends) APTSSSTKKTQLQLEHLLLDLQMILNMLNNYDNPKLTRMLTFKFYMPKKATELKHLQCLEEELKPLEEALNQAQSKNFHLDPRDLISNINVIVLELKGSETTFMCEYADETATIIEFLNRWITFCQSIISTLT	227
in silico designed IL-2 variant SEQ ID NO: 12, MSA fusion protein (ligand, not shown: large carriers; small tags and cut ends) APTSSSTKKTQLQLEHLLLDLQMILNMLNNYDNPKLTRMLTFKFYMPKKATELKHLQCLEEELKPLEEALNHAADDKDTIRDLISNINVIVLELKGSETTFMCEYADETATIIEFLNRWITFCQSIISTLT	51.2
